- Tested on: MALT1
- testName: Effect of buffer additives on MALT1 activity
- Assay type: biochemical, human
- appliedConditions: 50 mM Hepes, 100 mM NaCl, 0.9 M sodium citrate, pH 7.5, supplemented with additive (Figure 2C and results not shown)
quantityKind: effect of buffer additive on the activity of MALT1 (in words)

>  <querySmiles>
c1cnc2c(c1)ccc1cccnc12

>  <endpointValue>
no substantial effect

$$$$
>  <querySmiles>
[Ca+2].[Cl-].[Cl-]

>  <endpointValue>
no substantial effect

$$$$
>  <querySmiles>
O=C(O)CN(CCN(CC(=O)O)CC(=O)O)CC(=O)O

>  <endpointValue>
no substantial effect

$$$$
